System: Vero-E6
Assay: primary screen, phospholipidosis by LipidTOX staining; higher = more effect of the substance
Conditions: 10 µM
The campaign covered roughly 5,400 compounds. About 190 (3.5%) showed an effect of 50% or more. The sample as a whole holds a higher share of strong results than the screen did.
METRIC_NAME: result_ITMP (%)
Give the quantity in %, number only.

* NS(=O)(=O)NCCNc1nonc1/C(=N\c1ccc(F)c(Br)c1)NO | -3.83

Please find the next molecule below.
Fill in the recorded result_ITMP for this molecule, with Vero-E6 as test system: O=S(=O)(NCCNC/C=C/c1ccc(Br)cc1)c1cccc2cnccc12 60.8

---

Tested on: Vero-E6
Experiment: primary screen, phospholipidosis by LipidTOX staining; higher = more effect of the substance
Conditions: 10 µM
The campaign covered roughly 5,400 compounds. About 190 (3.5%) showed an effect of 50% or more. Many of the other results were omitted from the sample, so strong results are more common in it than they were.
METRIC_NAME: result_ITMP (%)
Could you give me the number in %? Just the number is fine.

The following compounds have reported results that may help.
• C/C=C(\C(=C\C)c1ccc(O)cc1)c1ccc(O)cc1 = 0.7
• CC(C)Cc1ccc(C(C)C(=O)O)cc1 (stereo not drawn) [R4A_0001344_001 / SPE_K14965640] = 1.58

Now examine the next entry.
Recall the recorded result_ITMP for CS(=O)(=O)CCNCc1ccc(-c2ccc3ncnc(Nc4ccc(OCc5cccc(F)c5)c(Cl)c4)c3c2)o1 with Vero-E6 and state it. 91.4

---

Tested on: Vero-E6
Test: primary screen, phospholipidosis by LipidTOX staining; higher = more effect of the substance
Details: 10 µM
Screen size: about 5,400 compounds; about 190 (3.5%) showed an effect of 50% or more. What follows is part of a selection rich in strong results, with near analogues and random picks from the rest.
METRIC_NAME: result_ITMP (%)
Unit % implied. Number only.

Take a look at these entries with their results.
* CCN[C@@H](C)Cc1cccc(C(F)(F)F)c1 | 3.76
* CNCC/C=C/c1cccnc1 | -4.64
* C[C@H](CSC(=O)c1ccccc1)C(=O)N1C[C@@H](Sc2ccccc2)C[C@H]1C(=O)[O-] | -1.35
* CN1C2C=C(c3sccc3Br)CC1CC2 (stereo not shown) | 6.82
* CN(C)CCC(c1ccc(Cl)cc1)c1ccccn1 (stereo not shown) | 16

Observed result_ITMP on Vero-E6 for CNCCC(Oc1ccccc1OC)c1ccccc1 (stereo not shown) , please. 13

Test system Vero-E6; read-out result_ITMP; what value for CC(=O)O[C@@]12CO[C@@H]1C[C@H](O)[C@@]1(C)C(=O)[C@H](O)C3=C(C)[C@@H](O)C[C@@](O)([C@@H](OC(=O)c4ccccc4)[C@H]21)C3(C)C ? -5.35

Tell me reported result_ITMP for C[C@@H]1CN(Cc2ccc(F)cc2)[C@@H](C)CN1C(=O)c1cc2c(C(=O)C(=O)N(C)C)cn(C)c2cc1Cl , tested with Vero-E6. -5.07

---

Tested on: Vero-E6
Test: primary screen, phospholipidosis by LipidTOX staining; higher = more effect of the substance
Conditions: 10 µM
In all, about 5,400 compounds went through this assay and about 190 (3.5%) showed an effect of 50% or more. Only a selection was taken, and strong results are over-represented in it overall.
METRIC_NAME: result_ITMP (%)
Answer with a number only, understood to be in %.

- CC(C)C[C@H](NC(=O)CNC(=O)[C@H](Cc1ccc(O)cc1)NC(=O)[C@H](CO)NC(=O)[C@H](Cc1c[nH]c2ccccc12)NC(=O)[C@H](Cc1c[nH]cn1)NC(=O)[C@@H]1CCC(=O)N1)C(=O)N[C@@H](CCCNC(=N)N)C(=O)N1CCC[C@H]1C(=O)NCC(N)=O: 1.23

Returns the measured result_ITMP for the input compound. Input: COCCCOc1ccnc(CS(=O)c2nc3ccccc3[n-]2)c1C (stereo not shown) -0.77

Reported result_ITMP for CCCCCCCCCCCCCCCC(=O)OC[C@@H](NC(=O)C(Cl)Cl)[C@H](O)c1ccc([N+](=O)[O-])cc1 : what is it? -1.35

Reported result_ITMP for CCCCCCCCC(=O)N[C@H](CN1CCCC1)[C@H](O)c1ccc2c(c1)OCCO2 : what is it? 63.4

Find the recorded result_ITMP belonging to C=C1/C(=C\C=C2/CCC[C@]3(C)[C@@H]([C@H](C)CCCC(C)(C)O)CC[C@@H]23)C[C@@H](O)C[C@@H]1O and report it. -1.95

Which measured result_ITMP value corresponds to CN(c1nccc(=O)[nH]1)C1CCN(c2nc3ccccc3n2Cc2ccc(F)cc2)CC1 ? 0.52

// lookup result_ITMP for Cc1cnc(Nc2ccc(OCCN3CCCC3)cc2)nc1Nc1cccc(S(=O)(=O)NC(C)(C)C)c1 122

---

Tested on: Vero-E6
Assay: primary screen, phospholipidosis by LipidTOX staining; higher = more effect of the substance
Conditions: 10 µM
The whole screen tested about 5,400 compounds, of which about 190 (3.5%) showed an effect of 50% or more. Only a selection was taken, and strong results are over-represented in it overall.
Reported result_ITMP values for a set of compounds
# output: bare number, implied unit %

• C[C@H]1CC2C([C@@H](O)C[C@@]3(C)C2CC[C@]3(O)C(=O)COC(=O)CCC(=O)[O-])[C@@]2(C)C=CC(=O)C=C12 (stereo partly shown) = -6.49
• Nc1ncnc2c1ncn2C1O[C@H](COP(=O)(O)OP(=O)([O-])OP(=O)([O-])O)[C@@H](O)[C@H]1O (stereo partly shown) = 6.44
• COc1cc2c(Nc3ccc(Br)cc3F)ncnc2cc1OCC1CCN(C)CC1 = 105
• C[C@H]1[C@H](OC(=O)CCC(=O)O)O[C@@H]2O[C@@]3(C)CC[C@H]4[C@H](C)CC[C@@H]1[C@@]24OO3 = 7.77

Entry under review: NC1=N[C@H]2[C@H](CCCCC(=O)O)SC[C@H]2N1 . Reported result_ITMP? -5.63

Return reported result_ITMP; argument: Cc1ncc(-c2csc(NC(=N)N)n2)[nH]1 -2.01

What measured result_ITMP goes with COc1cc2c(Nc3ccc(Cl)c(Cl)c3F)ncnc2cc1OC[C@@H]1C[C@@H]2CN(C)C[C@@H]2C1 ? 55.5

Field request: result_ITMP | item: CCN(CCCc1ccccc1)CCCc1ccccc1 58.9

---

Recorded result_ITMP for the following compounds
Test system: Vero-E6
Test: primary screen, phospholipidosis by LipidTOX staining; higher = more effect of the substance
Settings: 10 µM
The campaign covered roughly 5,400 compounds. About 190 (3.5%) showed an effect of 50% or more. The list comes from a sample in which strong results are over-represented; it also holds close analogues and randomly drawn compounds.
Quick note: give the figure in %, leave out the unit.

Before answering, review these 5 worked examples.
• CCOc1cc2ncc(C#N)c(Nc3ccc(F)c(Cl)c3)c2cc1NC(=O)/C=C/CN(C)C = 73.9
• N#CN/C(=N\c1ccncc1)NCCCCCCOc1ccc(Cl)cc1 = 0.38
• C=CC(=O)Nc1cc2c(Nc3ccc(F)c(Cl)c3)ncnc2cc1OCCCN1CCOCC1 = 4.03
• O=C(N[C@H]1CN2CCC1CC2)c1cc2cccc(Cl)c2s1 = 100
• COc1cc2cc(c1Cl)N(C)C(=O)C[C@H](OC(=O)C(C)C)[C@]1(C)O[C@H]1[C@H](C)[C@@H]1C[C@@](O)(NC(=O)O1)[C@H](OC)/C=C/C=C(\C)C2 = -0.8

Consider the additional compound presented here.
Please report the recorded result_ITMP for CCOc1cc2ncc(C#N)c(Nc3ccc(OCc4cccc(F)c4)c(Cl)c3)c2cc1NC(=O)/C=C/CN(C)C . -0.47

---

Tested on: Vero-E6
Assay: primary screen, phospholipidosis by LipidTOX staining; higher = more effect of the substance
Conditions: 10 µM
Screen size: about 5,400 compounds; about 190 (3.5%) showed an effect of 50% or more. What follows is part of a selection rich in strong results, with near analogues and random picks from the rest.
METRIC_NAME: result_ITMP (%)
Write the number in % without appending the unit.

Look over these answered cases.
* CC(=O)NCCCS(=O)(=O)[O-] | 7.64
* CN1[C@@H]2CC[C@H]1C[C@@H](OC(=O)c1c[nH]c3ccccc13)C2.CN1[C@@H]2CC[C@H]1C[C@H](OC(=O)c1c[nH]c3ccccc13)C2 | 19.1
* COc1ccc2cc(-c3[nH]c(-c4ccc(S(C)=O)cc4)nc3-c3ccncc3)ccc2c1 (centres unmarked) | -3.68
* NC(=O)[C@@H]1CC[C@@H]2CN1C(=O)N2OS(=O)(=O)[O-] | -0.26
* CC(=O)NCC(=O)N1[C@@H]2CC[C@H]1c1ccc(Nc3ncc(C(F)(F)F)c(NC4CCC4)n3)cc12 | 2.85
* C#C[C@]1(O)CC[C@H]2[C@@H]3CCC4=CC(=O)CC[C@@H]4C3CC[C@@]21CC (some centres unmarked) | -2.07
* C[C@@H]1CC[C@H]2C(C)(C)[C@H]3C[C@@]12CC[C@@]3(C)O | 4.78
* N[C@@H](Cc1ccc(I)cc1)C(=O)O | -0.07

Using the record for C=C[C@H]1C[N@]2CC[C@H]1C[C@@H]2[C@@H](O)c1ccnc2ccc(OC)cc12 , report its result_ITMP. 11.5

Query: result_ITMP; subject: CC(C)c1cnn2c(NCc3ccccc3)cc(NCCCCCCN)nc12 53.6

Quick one: result_ITMP of CCCC[C@H](NC(C)=O)C(=O)N[C@H]1CC(=O)NCCCC[C@@H](C(=O)O)NC(=O)[C@H](Cc2c[nH]c3ccccc23)NC(=O)[C@H](CCCNC(=N)N)NC(=O)[C@@H](Cc2ccccc2)NC(=O)[C@H](Cc2cnc[nH]2)NC1=O ? -3.41

Requested read-out: result_ITMP. Entry: C[C@@H]1CC2C3CCC4=CC(=O)C=C[C@]4(C)[C@@]3(F)[C@@H](O)C[C@]2(C)[C@@]1(O)C(=O)COP(=O)([O-])[O-] (some centres unmarked) -3.97

Fill in: result_ITMP of Cc1nc2ccc(Oc3ccc(F)cc3)cc2c(=O)n1C[C@H]1CCCN(C(C)C)C1 is ___ 56.3

Any idea what result_ITMP was measured for CC[C@]1(O)C[C@@H]2C[N@@](CCc3c([nH]c4ccccc34)[C@@](C(=O)OC)(c3cc4c(cc3OC)N(C)[C@H]3[C@@](O)(C(=O)OC)[C@H](OC(C)=O)[C@]5(CC)C=CCN6CC[C@]43[C@@H]65)C2)C1 ? 8.57
